// reported melting point per item

Entry `Cc1nc2c(cnn2C(C)C)cc1C(=O)O` — recorded melting point = 166 to 168 °C

Entry `Cc1ccc(S(=O)(=O)N2CCC(=O)CC2)cc1` — recorded melting point = 125 to 127 °C

Entry `CCOc1ccc(S(=O)(=O)Nc2ccc(C(=O)O)cc2)cc1` — recorded melting point = 226 to 228 °C

Entry `CN(C)c1ccc(S(N)(=O)=O)cc1N` — recorded melting point = 150 to 154 °C

Entry Clc1cc(NC2CCOc3ccccc32)ncn1 (stereo not drawn) — recorded melting point = 129 to 131 °C

Entry CC(C(=O)O)n1nnnc1C(C)(C)C (stereo not drawn) — recorded melting point = 171 to 173 °C

Entry `Cc1ccc(F)cc1-c1nc2ccccc2[nH]1` — recorded melting point = 223 to 225 °C

Entry `COc1cc(C=O)cc(Cl)c1OC` — recorded melting point = 56 to 58 °C

Entry `COC(=O)c1ccn2c(I)cnc2c1` — recorded melting point = 209 to 211 °C

Entry `O=C(O)c1ccccc1NCc1ccco1` — recorded melting point = 156 to 158 °C

Entry `O=C(O)c1cc(F)cc([N+](=O)[O-])c1Br` — recorded melting point = 177 to 179 °C

Entry `CC(C)NS(=O)(=O)c1ccc(/C=C/C(=O)O)cc1` — recorded melting point = 223 to 225 °C

Entry `O=S(=O)(Cl)c1ccc(S(=O)(=O)N2CCCCC2)cc1` — recorded melting point = 151 to 153 °C

----------
// reported melting point per item

Study these solved cases before continuing.
CCN(CC)c1ccc([N+](=O)[O-])cc1C(=O)O : 184 to 186 °C
Nc1ccc(CCN2CCOC2=O)cc1 : 192 to 194 °C
Cn1cc(-c2nnc(N)o2)cn1 : 253 to 255 °C
O=C(CCl)c1ccc(O)cc1O : 108 to 110 °C
O=C(CCl)Nc1ccnn1Cc1ccccc1 : 99 to 101 °C
COc1ccc(CCC2CCCCN2)cc1OC (configuration not stated) : 39 to 41 °C

Entry `O=C(O)c1cn(-c2ccc(F)cc2)nn1` — recorded melting point = 159 to 161 °C

Entry `Cn1cc(S(=O)(=O)N2CCCCC2)cc1C(=O)O` — recorded melting point = 236 to 238 °C

Entry `Oc1ccc(Oc2ccc(C(F)(F)F)cn2)cc1` — recorded melting point = 90 to 92 °C

Entry `COC(=O)c1c[nH]c(CC(C)C)n1` — recorded melting point = 136 to 138 °C

Entry `Cc1ccc(CC(=O)O)cc1C` — recorded melting point = 96 to 98 °C

Entry `CCCc1noc2nc(C)cc(C(=O)O)c12` — recorded melting point = 169 to 171 °C

Entry `O=C1CCNc2ncccc2N1` — recorded melting point = 263 to 265 °C

Entry `CC(=O)c1c(C)[nH]c2ccccc12` — recorded melting point = 195 to 197 °C

Entry `Nc1nccc(-c2cccs2)n1` — recorded melting point = 185 to 187 °C

Entry `Clc1ccc2c(c1)CCCN2` — recorded melting point = 37 to 39 °C

Entry `Nc1ncc(Cc2ccc(Cl)c(Cl)c2)s1` — recorded melting point = 83 to 85 °C

Entry CC(C)N1C2CCC1CC(O)C2 (configuration not stated) — recorded melting point = 90 to 92 °C

Entry O=C(O)C(OC1CCOCC1)c1ccccc1 (configuration not stated) — recorded melting point = 87 to 89 °C

Entry `COc1ccc(C(=O)NCC(=O)O)cc1OC` — recorded melting point = 198 to 200 °C

----------
// reported melting point per item

O=C(CC(F)(F)F)c1cc(F)ccc1F : 45 to 47 °C

Entry `Cc1nn(-c2ccccc2)c(C(F)(F)F)c1C(=O)O` — recorded melting point = 146 to 148 °C

Entry `O=C(O)c1cnc(-c2ccccn2)s1` — recorded melting point = 199 to 201 °C

Entry `CNC(=O)c1cccc(CCC(=O)O)c1` — recorded melting point = 119 to 121 °C

----------
// reported melting point per item

Cc1nn(Cc2ccccc2)c(Cl)c1C(=O)O : 180 to 182 °C

Entry `Cc1csc(=O)[nH]1` — recorded melting point = 98 to 100 °C

Entry CC(C)C(Br)C(=O)N1CCOCC1 (centres undefined) — recorded melting point = 71 to 73 °C

Entry `CCn1nc(N)cc1C1CC1` — recorded melting point = 111 to 113 °C

Entry CC(C)CN1C(=O)c2ccccc2N2C(=O)CCC12C(=O)O (centres undefined) — recorded melting point = 105 to 107 °C

Entry `CC(C)NCc1nc2ccccc2c(=O)[nH]1` — recorded melting point = 145 to 147 °C

Entry `CC(C)OC(=O)NNC(=O)CCl` — recorded melting point = 100 to 102 °C

Entry `Cc1nnc(-c2ccc(Br)c(F)c2)o1` — recorded melting point = 138 to 140 °C

Entry `NC(=S)NCc1ccc(Br)cc1` — recorded melting point = 159 to 161 °C

Entry `COC(=O)c1cc(C)ccc1N` — recorded melting point = 58 to 60 °C

Entry `Cc1ccc(-n2nnc(CC(=O)O)c2C)cc1` — recorded melting point = 194 to 196 °C

----------
RESULT_TYPE: melting point

Study these solved cases before continuing.
COC(=O)N1CCc2cc(N)ccc21 : 149 to 151 °C
CS(=O)(=O)Nc1ccccc1Br : 79 to 81 °C
CNS(=O)(=O)c1cc(C(=O)O)ccc1F : 209 to 211 °C
COc1cc(Br)cc(OC)c1O : 99 to 101 °C
CC(O)C(C)c1ccc2ccccc2n1 (centres undefined) : 69 to 71 °C

Entry `Nc1ccccc1C(=O)Nc1cccc(C(F)(F)F)c1` — recorded melting point = 133 to 135 °C

Entry CC(O)c1nc2ccccc2s1 (centres undefined) — recorded melting point = 61 to 63 °C

Entry `COc1ccc(N)cc1NC(=O)OC(C)(C)C` — recorded melting point = 108 to 110 °C

----------
// reported melting point per item

Study these solved cases before continuing.
COc1ccc2[nH]c3c(c2c1)CC1(CC3)OCCO1 : 149 to 151 °C
Cc1ccc(-n2c(N)nc3cc(C)ccc32)cc1 : 162 to 164 °C
Cc1nn(C)cc1C(=O)O : 190 to 192 °C

Moving on to the next compound.
Entry `O=C(O)Cn1c(=O)oc2cc([N+](=O)[O-])ccc21` — recorded melting point = 214 to 216 °C

----------
// reported melting point per item

Cn1cc(C#N)cn1 : 59 to 61 °C
Nc1ncc(Cl)cc1S(N)(=O)=O : 226 to 228 °C
O=S(=O)(Cl)c1cc(Br)ccc1F : 68 to 70 °C
N#CCc1nc2cc(F)ccc2s1 : 133 to 135 °C
O=C(O)C1(c2ccccc2F)CC1 : 106 to 108 °C
COc1ccc(C(=O)C2CCOCC2)cc1 : 103 to 105 °C
CC(=O)c1cc(S(N)(=O)=O)ccc1C : 124 to 126 °C

Entry `CN(CC(=O)O)C(N)=O` — recorded melting point = 141 to 143 °C

----------
RESULT_TYPE: melting point

Study these solved cases before continuing.
O=C(O)c1n[nH]c(=O)[nH]c1=O : 224 to 226 °C
COc1ccccc1CNc1cccc2cnccc12 : 118 to 120 °C
CC(O)Cc1ccc(Br)c(F)c1 (configuration not stated) : 36 to 38 °C
CCOC(=O)c1c(N)n(CCO)c2nc3ccccc3nc12 : 226 to 228 °C
Nc1ccc2c(ccn2CCN2CCOCC2)c1 : 102 to 104 °C

Entry NCC(O)c1ccc(F)c(F)c1 (configuration not stated) — recorded melting point = 53 to 55 °C

Entry `COc1ccc([N+](=O)[O-])cc1NC(=O)CCCl` — recorded melting point = 159 to 161 °C

----------
// reported melting point per item

Cc1cccc(OCCCCC(=O)O)c1 : 55 to 57 °C
CNC(=O)c1cccc(C#N)c1 : 140 to 142 °C
CCNC(=S)n1ncc(C(=O)OCC)c1N : 92 to 96 °C
Cc1oc2[nH]c(=O)n(-c3ccccc3)c(=O)c2c1C(=O)O : 289 to 291 °C
NS(=O)(=O)c1nccs1 : 119 to 121 °C

Entry `CCOC(=O)/C(=C(\O)CCl)c1nc(C)cs1` — recorded melting point = 76 to 78 °C

Entry `O=C(O)CCc1csc2ccccc12` — recorded melting point = 140 to 142 °C

Entry `O=C(O)/C=C/c1nccs1` — recorded melting point = 182 to 184 °C

Entry `Cc1ccc(CNCCO)cc1` — recorded melting point = 62 to 64 °C

Entry `Clc1noc(-c2ccsc2)n1` — recorded melting point = 108 to 110 °C

Entry CC(O)C(NC(=O)C(C)(C)C)C(=O)O (centres undefined) — recorded melting point = 156 to 158 °C

Entry `Nc1cc(Cl)ccc1-n1cncn1` — recorded melting point = 93 to 97 °C

Entry NC(Cc1c[nH]c2ccc([N+](=O)[O-])cc12)C(=O)O (centres undefined) — recorded melting point = 259 to 261 °C

Entry `N#CCOc1ccc(Cl)cc1CBr` — recorded melting point = 85 to 87 °C

Entry `Cc1cc(Br)ccc1NC(=O)CCN` — recorded melting point = 77 to 79 °C

Entry `COc1ccc(NCc2cccs2)cc1` — recorded melting point = 71 to 73 °C

Entry `CC(=O)c1ccc(Cl)c(Cl)c1O` — recorded melting point = 108 to 110 °C

Entry `Cc1ccc([N+](=O)[O-])c(C)c1N` — recorded melting point = 80 to 82 °C

Entry `Cc1cc(C)n(Cc2cccc(C(N)=NO)c2)n1` — recorded melting point = 137 to 139 °C

Entry `Nc1ccc(C(=O)N2CCOCC2)cc1` — recorded melting point = 134 to 136 °C

Entry `O=C1CC2(CCCCC2)CC(=O)N1` — recorded melting point = 169 to 171 °C

Entry `CC(C)(C)C(=O)NCCc1ccc(S(N)(=O)=O)s1` — recorded melting point = 144 to 146 °C

Entry `NNC(=S)Nc1cccnc1` — recorded melting point = 174 to 176 °C
